The measurements presented in this section are drawn from patent US8426447B2.

Biological target: UniProt P56817
Sequence (P56817 46-501, species assumed): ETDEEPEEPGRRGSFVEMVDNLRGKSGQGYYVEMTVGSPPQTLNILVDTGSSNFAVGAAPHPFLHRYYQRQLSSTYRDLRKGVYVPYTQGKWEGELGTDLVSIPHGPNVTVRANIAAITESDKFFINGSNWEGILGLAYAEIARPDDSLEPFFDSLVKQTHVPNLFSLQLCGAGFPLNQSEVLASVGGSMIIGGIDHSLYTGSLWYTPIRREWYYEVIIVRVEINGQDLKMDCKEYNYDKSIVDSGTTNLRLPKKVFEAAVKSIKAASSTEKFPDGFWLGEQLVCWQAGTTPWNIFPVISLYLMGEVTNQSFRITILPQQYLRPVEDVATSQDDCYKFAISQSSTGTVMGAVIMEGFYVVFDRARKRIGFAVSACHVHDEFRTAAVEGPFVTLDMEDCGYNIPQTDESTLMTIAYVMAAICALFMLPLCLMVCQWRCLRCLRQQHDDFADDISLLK
Assay: In Vitro Enzymatic BACE FRET (Fluorescence Resonance Energy Transfer) Assay
Assay type: biochemical
Conditions: in vitro BACE FRET enzyme assay, IC50 class symbols; read-out: BACE1 FRET assay
Method: In Vitro Enzymatic BACE FRET (Fluorescence Resonance Energy Transfer) Assay (Enzyme Assay Data in the Example Tables I, II, III & IV) The assay buffer used in this screen is 0.05 M acetate, pH 4.2, 10% DMSO final, 100 uM genapol (which is a nonionic detergent, below its Critical Micelle Concentration). […] The FRET assay is terminated with by addition of Tris buffer, which raises the pH to neutrality, and the fluorescence is determined. […]
Measured Attribute: IC50

Check out these entries, answers already filled in.
>  <Molecule>
CC(C)(C)COc1cnc2c(c1)[C@]1(COC(N)=N1)c1cc(-c3cccc(C#N)c3)ccc1O2

>  <IC50>
< 100 nM

$$$$
>  <Molecule>
NC1=N[C@@]2(CO1)c1cc(-c3cccnc3)ccc1Oc1ccc(N3CCOCC3)nc12

>  <IC50>
100 to 1000 nM

$$$$
>  <Molecule>
NC1=NC2(CO1)c1cc(-c3cccnc3)ccc1Oc1c2cc(-c2cccnc2)nc1F (stereo not shown)

>  <IC50>
< 100 nM

$$$$

Consider the record given below.
input: Any idea what IC50 came out for NC1=N[C@@]2(CO1)c1cc(-c3cccnc3F)ccc1Oc1c(F)cc(N3C[C@@H]4C[C@H]3CO4)cc12 on UniProt P56817?
output: < 100 nM
